Molecular target: Human Platelets (Homo sapiens)
Sequence (P21731 1-343): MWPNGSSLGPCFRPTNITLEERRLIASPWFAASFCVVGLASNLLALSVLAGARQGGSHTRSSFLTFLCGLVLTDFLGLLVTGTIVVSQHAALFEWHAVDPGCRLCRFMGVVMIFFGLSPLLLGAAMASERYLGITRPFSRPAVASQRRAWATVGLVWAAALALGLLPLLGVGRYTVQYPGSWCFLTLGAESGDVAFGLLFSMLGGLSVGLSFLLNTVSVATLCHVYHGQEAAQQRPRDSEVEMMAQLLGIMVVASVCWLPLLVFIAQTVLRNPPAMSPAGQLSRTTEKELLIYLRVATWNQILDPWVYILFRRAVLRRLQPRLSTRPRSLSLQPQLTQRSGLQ
Assay: Inhibition of induced threshold aggregation of human platelets (aggregating agent U44069, platelet rich plasma)
Assay type: cell-based
Settings: human platelet rich plasma; threshold aggregation induced by U44069; read-out: Inhibition of platelet aggregation (IC50 in µg/ml) (converted)
MEASURED ATTRIBUTE: log10 of IC50 (log10 of the value in nM)
Units before log transform: nM; reported quantity: IC50; transform: log10.

## Input Would you kindly share the measured log10 of IC50 for Cc1cccc2c3c(n(Cc4ccc(Cl)cc4)c12)C(CC(=O)O)CCC3 (centres unmarked) ?
## Output 2.43

## Input # log10 of IC50 lookup, item O=C(O)CC1CCCc2c1n(Cc1ccc(Cl)c(Cl)c1)c1ccc(F)cc21 (centres unmarked)
## Output 2.35

## Input Suppose we examine the compound COc1ccc2c(c1)c1c(n2Cc2ccc(Cl)cc2)CC(CC(=O)O)CC1 (centres unmarked) [Compound A, reference compound] ; what log10 of IC50 value has been reported?
## Output 3.96

Continuing:
## Input Returns the measured log10 of IC50 for the input compound. Input: CC(c1ccccc1)n1c2c(c3cc(F)ccc31)CCCC2CC(=O)O (centres unmarked)
## Output 2.41

## Input What does the data say about its log10 of IC50? Entry: O=C(O)CC1CCCc2c1n(Cc1ccc(Cl)cc1)c1c(Cl)cc(Cl)cc21 (centres unmarked)
## Output 2.22

## Input State the recorded log10 of IC50 for this entry: COc1ccc2c(c1)c1c(n2Cc2ccc(Cl)cc2)C(C(=O)O)CCC1 (centres unmarked)
## Output 4.06

## Input What does the data say about its log10 of IC50? Entry: O=C(O)CC1CCCc2c1n(Cc1ccc(Cl)cc1)c1ccccc21 (centres unmarked)
## Output 2.15

## Input Any idea what its log10 of IC50 is? The compound is O=C(O)CC1CCCc2c1n(Cc1ccc(Cl)cc1)c1ccc(Cl)cc21 (centres unmarked)
## Output 2.41
